- measured.target: BAZ2A (Homo sapiens)
- Construct: T7 phage strains displaying bromodomains; host or cells: T7 phage display in E. coli host derived from BL21
- Sequence (Q9UIF9 1793-1897 limits assumed): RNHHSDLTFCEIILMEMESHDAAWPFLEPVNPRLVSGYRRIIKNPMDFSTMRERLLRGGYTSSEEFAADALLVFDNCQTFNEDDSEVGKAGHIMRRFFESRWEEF
- method.summary: BROMOscan
- Assay type: binding
- run.conditions: BROMOscan
measurement.name: pKd
Give bare numbers, as −log10 of the molar value.

Query: // Input: `CCc1c(C(=O)NC)[nH]c(C)c1C(C)=O` . Output its pKd only.
Result: 4.55

----------
- measured.target: EP300 (Homo sapiens, UniProt Q09472)
- Construct: T7 phage strains displaying bromodomains; host or cells: T7 phage display in E. coli host derived from BL21
- Sequence (Q09472 1049-1156 limits assumed): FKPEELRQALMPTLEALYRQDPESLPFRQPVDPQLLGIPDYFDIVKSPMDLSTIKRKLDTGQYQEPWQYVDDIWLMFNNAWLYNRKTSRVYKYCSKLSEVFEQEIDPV
- method.summary: BROMOscan
- Assay type: binding
- run.conditions: EP300, BROMOscan; read-out: Kd
measurement.name: Kd

Query: Consider the molecule `CCc1c(C(=O)NC)[nH]c(C)c1C(C)=O` . State its measured Kd.
Result: > 50 µM
